B1: KCNAB2 (parent)
chain: SSIIHEIDSILGNKPYSKKDYRS

Variants of: B1
Assay: protein stability index of a GFP-peptide fusion (GPS, HEK-293T) (PSI 1-6); higher = more stable;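 note: lentivirally expressed fusions sorted by FACS into six bins by GFP to DsRed ratio, PSI derived from sequencing read proportions per bin multiplied by bin number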
Settings: c terminus: native
// criterion not met strictly below 3 in protein stability index; criterion met otherwise

// below: answered variants
I3K :: criterion not met
S23W :: criterion not met
N13G :: criterion not met
S23E :: criterion met
G12D :: criterion met

[Q] Item S1R with protein stability index of 3 or above?
[A] criterion not met

[Q] Input S1D
[A] criterion met

Values from the supplement of paper PMC10567573
